Test system: Enterobacter cloacae
Assay: Antibacterial activity against Enterobacter cloacae ATCC 23355 […] by Etest method in presence of 4 ug/ml NAB7064
Type: functional
endpoint_label: MIC (µg/mL)
Form entry: value (µg/mL) — number only.

Examples from the recorded data:
C/C(=C\C(=O)OCCCCCCCCC(=O)O)C[C@@H]1OC[C@H](C[C@@H]2O[C@H]2[C@@H](C)[C@H](C)O)[C@@H](O)[C@H]1O [MUPIROCIN]	0.19
CC[C@H]1OC(=O)[C@H](C)[C@@H](O[C@H]2C[C@@](C)(OC)[C@@H](O)[C@H](C)O2)[C@H](C)[C@@H](O[C@@H]2O[C@H](C)C[C@H](N(C)C)[C@H]2O)[C@](C)(O)C[C@@H](C)C(=O)[C@H](C)[C@@H](O)[C@]1(C)O [ERYTHROMYCIN]	1.5
CO[C@H]1/C=C/O[C@@]2(C)Oc3c(C)c(O)c4c(O)c(c(/C=N/N5CCN(C)CC5)c(O)c4c3C2=O)NC(=O)/C(C)=C\C=C\[C@H](C)[C@H](O)[C@@H](C)[C@@H](O)[C@@H](C)[C@H](OC(C)=O)[C@@H]1C [RIFAMPIN]	0.008
CC[C@H]1OC(=O)[C@H](C)[C@@H](O[C@H]2C[C@@](C)(OC)[C@@H](O)[C@H](C)O2)[C@H](C)[C@@H](O[C@@H]2O[C@H](C)C[C@H](N(C)C)[C@H]2O)[C@](C)(O)C[C@@H](C)CN(C)[C@H](C)[C@@H](O)[C@]1(C)O [AZITHROMYCIN]	0.19

Kindly review the next molecule as well.
MIC measured on CC[C@H]1OC(=O)[C@H](C)[C@@H](O[C@H]2C[C@@](C)(OC)[C@@H](O)[C@H](C)O2)[C@H](C)[C@@H](O[C@@H]2O[C@H](C)C[C@H](N(C)C)[C@H]2O)[C@](C)(OC)C[C@@H](C)C(=O)[C@H](C)[C@@H](O)[C@]1(C)O [CLARITHROMYCIN] = 0.25
